Tested on: RXRa DBDmut IVT, anti-RXR (DBD mutation: RXRa K156A/R161A, NR concentration 90 nM)
assay overview: PBM binding z-score (relative to random genomic background probes); higher = stronger binding; sequences stand for … in GC…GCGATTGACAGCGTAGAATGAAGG
For each entry below, report its PBM binding z-score value.
Just the number.

q: Find the measured PBM binding z-score of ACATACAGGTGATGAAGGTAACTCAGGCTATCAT and report it.
a: 0.27

q: Find the measured PBM binding z-score of CGAACTAGGTCATTGACAGGACAGTCAATAGTAA and report it.
a: 2.45

q: Find the measured PBM binding z-score of TTACCAAGGTGAGCTGAGGTCCTTGATCCAACTC and report it.
a: -0.639

q: Find the measured PBM binding z-score of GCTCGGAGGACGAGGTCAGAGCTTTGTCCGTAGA and report it.
a: 0.606

q: Find the measured PBM binding z-score of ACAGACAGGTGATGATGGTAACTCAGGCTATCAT and report it.
a: -0.173

q: Find the measured PBM binding z-score of CGAACGATGGCATGAGTTGATAGCAAATGCCGAT and report it.
a: 0.0712

q: Find the measured PBM binding z-score of GCTAGCAGGCCATTTGGGTCACTCGATGACGGGC and report it.
a: 0.253

q: Find the measured PBM binding z-score of CCTCGGAGGACAGAACGTCAGAGCTGTCCGCTTT and report it.
a: -0.411

q: Find the measured PBM binding z-score of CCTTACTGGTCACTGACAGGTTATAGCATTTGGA and report it.
a: 0.856

q: Find the measured PBM binding z-score of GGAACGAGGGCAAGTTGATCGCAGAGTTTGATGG and report it.
a: 2.28

q: Find the measured PBM binding z-score of ACTATTAGTTGAGACGGGGGCAACCGATAGGTTG and report it.
a: 1.55

q: Find the measured PBM binding z-score of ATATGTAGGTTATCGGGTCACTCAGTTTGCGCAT and report it.
a: 1.56

q: Find the measured PBM binding z-score of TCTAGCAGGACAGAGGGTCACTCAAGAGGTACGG and report it.
a: 0.168

q: Find the measured PBM binding z-score of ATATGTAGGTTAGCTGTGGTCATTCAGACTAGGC and report it.
a: 0.139

q: Find the measured PBM binding z-score of CGAACAAGGTCAGAACAGGACAGTGAAGGATGAT and report it.
a: 2.29

q: Find the measured PBM binding z-score of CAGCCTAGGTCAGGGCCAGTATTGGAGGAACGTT and report it.
a: -0.14

q: Find the measured PBM binding z-score of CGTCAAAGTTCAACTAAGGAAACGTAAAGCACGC and report it.
a: 4.6

q: Find the measured PBM binding z-score of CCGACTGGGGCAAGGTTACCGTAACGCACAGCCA and report it.
a: -0.694

q: Find the measured PBM binding z-score of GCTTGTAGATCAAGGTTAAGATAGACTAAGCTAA and report it.
a: 0.0981

q: Find the measured PBM binding z-score of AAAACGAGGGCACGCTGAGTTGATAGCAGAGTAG and report it.
a: 2.08

q: Find the measured PBM binding z-score of GTATCAAGGTGAATAGGTCGTTGATGAGTAGGCG and report it.
a: 0.056

q: Find the measured PBM binding z-score of CAAACTGGGTCAAGAGGTCAAAGTCCGCTTCCCG and report it.
a: 2.51

q: Find the measured PBM binding z-score of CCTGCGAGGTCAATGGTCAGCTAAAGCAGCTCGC and report it.
a: 4.37

q: Find the measured PBM binding z-score of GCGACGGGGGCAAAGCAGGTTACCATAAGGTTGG and report it.
a: 2.62

q: Find the measured PBM binding z-score of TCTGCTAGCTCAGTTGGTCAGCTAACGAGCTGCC and report it.
a: -0.192

q: Find the measured PBM binding z-score of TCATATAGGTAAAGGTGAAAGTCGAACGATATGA and report it.
a: 0.845

q: Find the measured PBM binding z-score of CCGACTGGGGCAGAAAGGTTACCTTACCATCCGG and report it.
a: -0.233

q: Find the measured PBM binding z-score of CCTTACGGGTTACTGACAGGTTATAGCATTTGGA and report it.
a: 0.177

q: Find the measured PBM binding z-score of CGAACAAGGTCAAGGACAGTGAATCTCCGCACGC and report it.
a: 3.61

q: Find the measured PBM binding z-score of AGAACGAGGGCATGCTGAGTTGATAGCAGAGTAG and report it.
a: 2.24

q: Find the measured PBM binding z-score of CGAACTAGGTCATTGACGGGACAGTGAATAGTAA and report it.
a: 2.41

q: Find the measured PBM binding z-score of TCTATTAGTTGATTAGGGCAAGCGAAACAGCGGA and report it.
a: 0.689

q: Find the measured PBM binding z-score of CAAACTAGGTCAGGGTCAAAGTCGGTTTGTGCCA and report it.
a: 2.77

q: Find the measured PBM binding z-score of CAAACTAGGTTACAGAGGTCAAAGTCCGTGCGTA and report it.
a: 2.53

q: Find the measured PBM binding z-score of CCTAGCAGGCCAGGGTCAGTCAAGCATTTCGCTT and report it.
a: -0.296

q: Find the measured PBM binding z-score of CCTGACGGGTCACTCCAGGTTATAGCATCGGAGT and report it.
a: 1.04

q: Find the measured PBM binding z-score of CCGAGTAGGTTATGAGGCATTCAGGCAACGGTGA and report it.
a: 0.178

q: Find the measured PBM binding z-score of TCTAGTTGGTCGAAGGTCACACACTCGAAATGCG and report it.
a: 1.37

q: Find the measured PBM binding z-score of AGAACGAGGGCAATGAGTTGAGAGCACGGGTGGC and report it.
a: 1.93

q: Find the measured PBM binding z-score of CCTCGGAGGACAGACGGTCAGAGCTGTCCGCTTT and report it.
a: -0.152

q: Find the measured PBM binding z-score of CCTACTGGGCCAAAGGTCATGGATTCCAATGCTC and report it.
a: 0.383

q: Find the measured PBM binding z-score of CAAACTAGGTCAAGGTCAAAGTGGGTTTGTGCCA and report it.
a: 3.05

q: Find the measured PBM binding z-score of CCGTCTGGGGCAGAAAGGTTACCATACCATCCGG and report it.
a: -0.795

q: Find the measured PBM binding z-score of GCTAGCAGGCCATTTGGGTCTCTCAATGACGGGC and report it.
a: -0.264

q: Find the measured PBM binding z-score of AGAATGAGGTTATTAAAATCAGGGAATTGCGGTC and report it.
a: 1.46

q: Find the measured PBM binding z-score of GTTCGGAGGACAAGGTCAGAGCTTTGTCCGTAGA and report it.
a: 0.7

q: Find the measured PBM binding z-score of GTTGCTAGGTCAACTGATGGTCAGCTAAAGCTCG and report it.
a: 1.48

q: Find the measured PBM binding z-score of ATTTCTAGGTAACAAGTTCAGTGAAAGAGAGGAC and report it.
a: 1.44

q: Find the measured PBM binding z-score of TAGCCTAGATCATGCGGGCCAGTATAGTGTCGGC and report it.
a: -1

q: Find the measured PBM binding z-score of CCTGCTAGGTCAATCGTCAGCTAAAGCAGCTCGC and report it.
a: 1.78

q: Find the measured PBM binding z-score of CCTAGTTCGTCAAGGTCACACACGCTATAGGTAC and report it.
a: 4.16
